- system.name: T1, human MSLN-R2-his protein (human, UniProt Q13421 391-486)
- T1 construct: Region 2 of human mesothelin, made in HEK293E cells, His-tagged; also called human MSLN-R2 protein; hMSLN-R2-his; not shown: His tag
- assay.info: ELISA on coated MSLN-R2; antibody 0.01 nM
# maps each entry to its OD450

{"columns": ["binder", "outcome.measure", "result"],
 "data": [
  ["S009-F8-22.23 (antibody, human IgG1, kappa, V domains shown) VH: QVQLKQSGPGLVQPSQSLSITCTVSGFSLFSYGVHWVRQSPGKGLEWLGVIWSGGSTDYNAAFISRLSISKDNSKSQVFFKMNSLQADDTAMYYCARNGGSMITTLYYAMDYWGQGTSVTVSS VL: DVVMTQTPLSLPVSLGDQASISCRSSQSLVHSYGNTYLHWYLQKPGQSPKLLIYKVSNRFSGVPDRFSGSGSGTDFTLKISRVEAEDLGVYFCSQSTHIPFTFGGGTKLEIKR", "OD450", "0.04 OD450"],
  ["S009-F8-15.19 (antibody, human IgG1, kappa, V domains shown) VH: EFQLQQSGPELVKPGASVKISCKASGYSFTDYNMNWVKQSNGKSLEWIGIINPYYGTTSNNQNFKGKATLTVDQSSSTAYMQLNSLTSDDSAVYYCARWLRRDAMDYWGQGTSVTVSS VL: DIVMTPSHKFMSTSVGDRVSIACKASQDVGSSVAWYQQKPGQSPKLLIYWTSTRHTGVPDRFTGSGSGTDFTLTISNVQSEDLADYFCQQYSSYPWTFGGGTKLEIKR", "OD450", "0.04 OD450"],
  ["S009-F8-18.9 (antibody, human IgG1, kappa, V domains shown) VH: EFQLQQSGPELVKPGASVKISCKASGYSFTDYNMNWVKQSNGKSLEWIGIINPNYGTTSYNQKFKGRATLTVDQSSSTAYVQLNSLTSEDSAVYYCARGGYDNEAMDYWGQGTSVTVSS VL: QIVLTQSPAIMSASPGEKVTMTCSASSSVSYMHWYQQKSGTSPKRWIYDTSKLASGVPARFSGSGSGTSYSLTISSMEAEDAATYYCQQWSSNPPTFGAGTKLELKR", "OD450", "0.04 OD450"],
  ["S009-F8-4.5 (antibody, human IgG1, kappa, V domains shown) VH: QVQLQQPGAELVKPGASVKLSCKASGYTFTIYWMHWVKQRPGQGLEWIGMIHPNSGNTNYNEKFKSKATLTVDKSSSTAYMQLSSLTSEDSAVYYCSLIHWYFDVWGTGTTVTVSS VL: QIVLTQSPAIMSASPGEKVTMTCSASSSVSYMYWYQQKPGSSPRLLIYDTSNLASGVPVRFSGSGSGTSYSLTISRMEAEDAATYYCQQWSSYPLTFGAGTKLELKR", "OD450", "0.05 OD450"],
  ["S009-F8-28.23 (antibody, human IgG1, kappa, V domains shown) VH: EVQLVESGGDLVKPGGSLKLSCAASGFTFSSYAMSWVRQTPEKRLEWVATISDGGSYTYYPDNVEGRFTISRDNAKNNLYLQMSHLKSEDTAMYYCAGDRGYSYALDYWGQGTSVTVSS VL: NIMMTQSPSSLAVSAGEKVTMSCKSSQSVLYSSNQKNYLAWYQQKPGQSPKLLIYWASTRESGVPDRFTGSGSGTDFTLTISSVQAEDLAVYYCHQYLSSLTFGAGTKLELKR", "OD450", "0.04 OD450"]
]}

Ask: State the recorded OD450 for this entry: S009-F8-19.21 (antibody, human IgG1, kappa, V domains shown) VH: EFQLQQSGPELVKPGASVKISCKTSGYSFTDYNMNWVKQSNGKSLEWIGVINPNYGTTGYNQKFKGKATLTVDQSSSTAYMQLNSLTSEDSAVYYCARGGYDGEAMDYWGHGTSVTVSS VL: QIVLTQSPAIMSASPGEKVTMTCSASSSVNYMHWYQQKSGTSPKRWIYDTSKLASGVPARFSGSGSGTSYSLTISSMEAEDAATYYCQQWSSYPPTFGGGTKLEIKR
Reply: 0.04 OD450

Ask: State the recorded OD450 for this entry: S009-F8-7.5 (antibody, human IgG1, kappa, V domains shown) VH: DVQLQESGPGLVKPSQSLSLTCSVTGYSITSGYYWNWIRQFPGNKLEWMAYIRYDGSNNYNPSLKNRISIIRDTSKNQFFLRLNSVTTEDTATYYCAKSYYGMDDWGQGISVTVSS VL: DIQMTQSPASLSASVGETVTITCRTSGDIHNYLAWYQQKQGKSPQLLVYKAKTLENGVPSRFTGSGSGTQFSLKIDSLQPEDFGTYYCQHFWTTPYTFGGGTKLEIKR
Reply: 0.31 OD450

Ask: State the recorded OD450 for this entry: S009-F8-13.8 (antibody, human IgG1, kappa, V domains shown) VH: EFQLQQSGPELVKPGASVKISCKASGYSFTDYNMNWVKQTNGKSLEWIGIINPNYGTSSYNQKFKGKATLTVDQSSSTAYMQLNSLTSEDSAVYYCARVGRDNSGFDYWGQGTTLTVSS VL: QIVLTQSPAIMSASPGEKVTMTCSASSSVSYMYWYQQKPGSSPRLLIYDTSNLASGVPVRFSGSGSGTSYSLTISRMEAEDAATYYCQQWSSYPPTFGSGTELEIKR
Reply: 0.04 OD450

The measured values listed here are drawn from patent US20250250357A1.
